test system: MCF7 breast; assay: NCI-60 one-dose screen, 48 h (100 = growth as untreated, 0 = no growth, -100 = all killed); conditions: 10 µM unless noted
Compounds without any hit were thinned out: in the full panel of roughly 83,000, 20% have a hit.
Provide the recorded growth for the entries that follow.
Quick note: give the figure in %, leave out the unit.

Look up and report growth, with MCF7 breast as system, for CSc1nc(-c2cccs2)c2c(N)[nH]nc2n1
94.3

Look up and report growth, with MCF7 breast as system, for COc1cc2cc(c1Cl)N(C)C(=O)C[C@H](OC(=O)[C@H](C)N(C)C(=O)CCS)C[C@]1(C)O[C@H]1[C@H](C)[C@@H]1C[C@@](O)(NC(=O)O1)[C@H](OC)/C=C/C=C(\C)C2
11.4

Look up and report growth, with MCF7 breast as system, for C=C1C(=O)O[C@H]2[C@H]1CC/C(COC(=O)CCC(=O)OC/C1=C/CC[C@@]3(C)O[C@H]3[C@H]3OC(=O)C(=C)[C@@H]3CC1)=C\CC[C@@]1(C)O[C@@H]21
12

====

system: SF-268 CNS; experiment: NCI-60 one-dose screen, 48 h (100 = growth as untreated, 0 = no growth, -100 = all killed); settings: 10 µM unless noted
Compounds without any hit were thinned out: in the full panel of roughly 83,000, 20% have a hit.
VALUE KIND: growth (%)
Quick note: give the figure in %, leave out the unit.

Please supply the value of reported growth for the item CSc1cccc(NC(=O)Nc2nc3c(C)cccc3s2)c1
104

Please supply the value of reported growth for the item Cn1cc(-c2ccc3c(c2)ncn3-c2ccc(CC(=O)Nc3cc(C(C)(C)C)on3)cc2)cn1
25.6

Please supply the value of reported growth for the item COc1ccc2cc(/C=C3\N=C(c4cc(OC)c(OC)c(OC)c4)OC3=O)c(OC)nc2c1
98.2

Please supply the value of reported growth for the item CC(C)(C#N)c1cc(F)cc(C(=O)Nc2cc(Nc3ncccc3-c3ncnc4nc[nH]c34)ccc2F)c1
60.6

Please supply the value of reported growth for the item COc1cc(NC(=O)Nc2cnc(Nc3ccc(N4CCOCC4)cc3)nc2Oc2ccc(F)cc2)cc(OC)c1
75.8

Please supply the value of reported growth for the item C#CCOC(=O)[C@]1(C)CCC[C@]2(C)[C@H]3C[C@H]4C(C(C)C)=C[C@]3(CC[C@H]21)[C@@H]1C(=O)CCC(=O)[C@@H]14
99.2

Please supply the value of reported growth for the item COC(=O)c1oc2c(C(=O)/C=C/c3ccc(OC)cc3)c(OCCCN3CCCCC3)ccc2c1C
-2.59

Please supply the value of reported growth for the item CC(C)(C)c1nc2c(s1)c1nc(N)ncc1c1ccc(NS(=O)(=O)c3c(F)cccc3F)c(F)c12
79.1

====

test system: SW-620 colon; assay: NCI-60 one-dose screen, 48 h (100 = growth as untreated, 0 = no growth, -100 = all killed); conditions: 10 µM unless noted
This is part of a sample that, as a whole, favours compounds with a hit. Of some 83,000 tested, about 20% had one in any assay. The source made the active and inactive calls. The calls were made as follows: active = growth percent below 10; inactive = the rest.
Provide the recorded growth for the entries that follow.

Please supply the value of reported growth for the item Nc1cccc(C(=O)Nc2ccc3c(O)c(N=Nc4ccc(N=Nc5ccc(S(=O)(=O)O)cc5)cc4)c(S(=O)(=O)O)cc3c2)c1
107% (inactive)

Please supply the value of reported growth for the item CC(=O)c1cnc(-c2ccccc2)nc1CBr
39.6% (inactive)

Please supply the value of reported growth for the item CSc1cccc(NC(=O)Nc2nc3c(C)cccc3s2)c1
113% (inactive)

Please supply the value of reported growth for the item COC1=CC2C=C(C3N(c4ccccc4)NC(=O)[C@@H]4CCCN34)C(=O)NC2C=C1 (stereo not given in full)
105% (inactive)

Please supply the value of reported growth for the item N#Cc1c(-c2ccc(F)cc2)nc(N=Nc2c(O)[nH]c3ccc(Cl)cc23)nc1N1CCOCC1
68.9% (inactive)

Please supply the value of reported growth for the item CN1CCN(/C=C2\CC(C(=O)NCc3ccc(Cl)cc3Cl)NC2=O)CC1 (stereo not given)
98% (inactive)

Please supply the value of reported growth for the item OCCNc1nc(NCCO)nc(Nc2ccc(C3=NN(c4ccc(Cl)cc4)C(c4ccc(Cl)cc4)C3)cc2)n1 (stereo not given)
71.1% (inactive)

Please supply the value of reported growth for the item O=c1[nH]c2ccccc2cc1-c1nc2ccncc2[nH]1
88.4% (inactive)

Please supply the value of reported growth for the item Cc1cc(O)cc(O)c1N=NC1=NCCS1
111% (inactive)

Please supply the value of reported growth for the item CNCc1cccc2c1OCCOCCOCCN(CCN1CCOCC1)S(=O)(=O)c1ccc(cc1)-c1cnc(N)c(n1)C(=O)N2
43.4% (inactive)
